target: Acetylcholinesterase (Torpedo californica, UniProt P04058); design: species or system Tetronarce californica
Sequence (P04058 whole entry): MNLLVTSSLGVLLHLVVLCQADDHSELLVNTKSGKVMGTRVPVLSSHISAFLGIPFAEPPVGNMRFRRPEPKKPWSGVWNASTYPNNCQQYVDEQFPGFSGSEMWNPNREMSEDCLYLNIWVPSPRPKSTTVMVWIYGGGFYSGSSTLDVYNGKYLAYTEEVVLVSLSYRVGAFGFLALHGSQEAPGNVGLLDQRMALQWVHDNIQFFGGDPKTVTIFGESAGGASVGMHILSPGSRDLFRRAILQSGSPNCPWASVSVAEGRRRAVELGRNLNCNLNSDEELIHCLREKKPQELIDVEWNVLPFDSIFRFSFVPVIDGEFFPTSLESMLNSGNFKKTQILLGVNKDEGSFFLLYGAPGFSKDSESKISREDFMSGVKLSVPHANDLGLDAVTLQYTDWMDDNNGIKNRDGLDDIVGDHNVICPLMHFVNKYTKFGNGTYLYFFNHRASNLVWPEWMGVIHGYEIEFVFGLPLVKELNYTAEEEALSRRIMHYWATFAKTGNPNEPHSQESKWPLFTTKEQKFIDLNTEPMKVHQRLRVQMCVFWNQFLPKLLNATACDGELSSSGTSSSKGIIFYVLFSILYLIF
Description: Inhibitory activity against Acetylcholinesterase
Measured IC50 by item
Please state the figure in µM; there is no need to write the unit.

{"columns": ["molecule", "test_target", "unit_info", "reading"],
 "data": [
  ["CC(=O)Nc1ccc([C@@]2(O)C[N+](C)(C)CCO2)cc1", "Acetylcholinesterase (Torpedo californica, UniProt P04058)", "µM", 2070],
  ["C[N+](C)(C)CCCCCBr", "Acetylcholinesterase (Torpedo californica, UniProt P04058)", "µM", 534],
  ["C[N+]1(C)CCO[C@H](O)C1", "Acetylcholinesterase (Torpedo californica, UniProt P04058)", "µM", 1760],
  ["C[N+]1(C)CCO[C@@](O)(c2ccc([N+](=O)[O-])cc2)C1", "Acetylcholinesterase (Torpedo californica, UniProt P04058)", "µM", 5120],
  ["C[N+]1(C)CCO[C@@](O)(C(F)(F)F)C1", "Acetylcholinesterase (Torpedo californica, UniProt P04058)", "µM", 3830],
  ["CCCC(=O)SCC[N+](C)(C)C", "Acetylcholinesterase (Torpedo californica, UniProt P04058)", "µM", 126],
  ["C[N+](C)(C)CCS", "Acetylcholinesterase (Torpedo californica, UniProt P04058)", "µM", 440],
  ["C[N+](C)(C)CCCCBr", "Acetylcholinesterase (Torpedo californica, UniProt P04058)", "µM", 597],
  ["C[N+](C)(C)CCCCI", "Acetylcholinesterase (Torpedo californica, UniProt P04058)", "µM", 471],
  ["C[C@@]1(O)C[N+](C)(C)CCO1", "Acetylcholinesterase (Torpedo californica, UniProt P04058)", "µM", 1730]
]}

If you can, please state the reported IC50 value of C[N+]1(C)CCO[C@@](O)(c2ccc(Cl)cc2)C1 .
8130

Follow-up item: CCCC(=O)OCC[N+](C)(C)C
229

Next entry: CC(=O)CCC[N+](C)(C)C
84.8

// same read-out, input: C=CC[N+](C)(C)C
2920

Another: C[N+]1(C)CCO[C@@](O)(c2ccc(C#N)cc2)C1
11600

Also, CCOCC[N+](C)(C)C please.
1160

Same question, C[N+](C)(C)CCCBr this time
87.9

Moving on to the next molecule: CC(=O)Nc1cccc([N+](C)(C)C)c1
1000

// next record C[N+](C)(C)CCCl [CHLORMEQUAT CHLORIDE]
2390

Entry to check: CCCCCC[N+](C)(C)C
816

# repeat for CCSCC[N+](C)(C)C
1510

Same again, this time with C=CCCCN(C)C
1130

What do we get for C=CCC[N+](C)(C)C ?
848

---

Listed next: entries and their corresponding IC50.
biological target: Acetylcholinesterase (Electrophorus electricus, UniProt O42275)
Sequence (O42275 whole entry): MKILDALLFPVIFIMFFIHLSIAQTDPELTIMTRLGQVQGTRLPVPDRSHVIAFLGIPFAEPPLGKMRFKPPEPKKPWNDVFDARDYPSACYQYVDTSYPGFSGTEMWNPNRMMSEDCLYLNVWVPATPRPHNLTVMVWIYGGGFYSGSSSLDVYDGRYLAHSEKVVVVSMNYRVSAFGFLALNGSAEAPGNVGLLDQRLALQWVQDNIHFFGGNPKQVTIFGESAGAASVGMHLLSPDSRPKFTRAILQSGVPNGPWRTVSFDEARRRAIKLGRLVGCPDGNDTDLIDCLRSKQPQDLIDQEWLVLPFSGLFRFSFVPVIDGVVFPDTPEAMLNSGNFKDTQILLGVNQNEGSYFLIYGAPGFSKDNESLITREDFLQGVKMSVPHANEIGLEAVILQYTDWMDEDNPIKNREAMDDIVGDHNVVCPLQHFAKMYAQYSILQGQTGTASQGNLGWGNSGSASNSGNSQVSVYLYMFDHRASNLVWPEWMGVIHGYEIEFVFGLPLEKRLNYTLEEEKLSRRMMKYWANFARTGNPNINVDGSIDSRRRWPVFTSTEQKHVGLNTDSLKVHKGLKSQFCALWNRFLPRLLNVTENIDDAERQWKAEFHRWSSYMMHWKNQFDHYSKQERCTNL
Report only the number, with the unit µM understood.

Known IC50 results, listed for orientation:
{"columns": ["mol_smiles", "IC50 [µM]"],
 "data": [
  ["Cc1c(O)cccc1[N+](C)(C)C", 141],
  ["CC(=O)Oc1cc([N+](C)(C)C)ccc1C", 0.659]
]}

Which IC50 value belongs to Cc1ccc([N+](C)(C)C)cc1O ?
3.11

Proceed to CC(=O)Oc1cccc([N+](C)(C)C)c1
3.01
